Field: logP. Provide a value for each of the compounds that follow.
Test: logP determination by HPLC on a reversed-phase column (C 18), EEC Directive 79/831 Annex V.A8
Type: physicochemical
Conditions: method marker [b]; isomer A / isomer B / isomer mixture as noted in the cell

Sample records with logP:
INSERT INTO results (compound, value) VALUES
  ('CC(=NOCON=C(C)c1ccccn1)c1ccccn1', '2.23^[b]'),
  ('C=C(CON=C(C)c1cccc(C)n1)CON=C(C)c1ncc(C(F)(F)F)cc1Cl (single isomer, unassigned) [compound 157]', '4.42^[b] (isomer A)'),
  ('C=C(CON=C(C)c1cc(C(=O)OC)cc(C)n1)CON=C(C)c1cc(C(=O)OC)cc(C)n1', '5.46^[b]'),
  ('C=C(CON=C(C)c1ccc(C)cn1)CON=C(C)c1ccc(C)cn1', '3.36^[b]'),
  ('C=C(CON=C(C)c1cc(Cl)cc(Cl)c1)CON=C(C)c1cccc(C)n1', '6.30^[b]');

Report logP for each item below.
1. CC(=NOCCON=C(C)c1ccncc1)c1ccncc1
2. C=C(CON=C(C)c1cccc(C)n1)CON=C(CC)c1ncccc1C (single isomer, unassigned) [compound 143]
3. C=C(CON=C(C)c1ccc(C(F)(F)F)cn1)CON=C(C)c1cccc(C)n1
4. C=C(CON=C(C)c1cccc(C)n1)CON=C(N)c1nc(C)c(C)c(C)n1

RESULT:
1. 0.66^[b]
2. 3.23^[b] (isomer A)
3. 5.15^[b]
4. 2.13^[b]

----------
Experiment: logP determination by HPLC on a reversed-phase column (C 18), EEC Directive 79/831 Annex V.A8
Format: physicochemical
Conditions: value marked [b]
value.type: logP

Sample records with logP:
INSERT INTO measurements (compound, value) VALUES
  ('C=C(CON=C(CC)c1cccc(CC)n1)CON=C(CC)c1cccc(CC)n1', '7.08^[b]'),
  ('C=C(CON=C(C)c1cccc(C)n1)CON=C(C)c1nccc(C)n1', '2.37^[b]'),
  ('CC(=NOCC(C)(C)CON=C(CC(C)C)c1ncccc1C)c1cccc(C)n1', '5.97^[b]'),
  ('CC(=NOCC1OC1CON=C(C)c1cccc(C)n1)c1cccc(C)n1 (racemic)', '2.08^[b]'),
  ('CC(=NOCC1(CON=C(C)c2ccc(C)c(C)n2)CCC1)c1ccc(C)c(C)n1', '4.07^b]');

Report logP for each item below.
1. Cc1cc(C)nc(C(N)=NOC/C=C/CON=C(N)c2nc(C)cc(C)n2)n1
2. CC(=NOCC1(CON=C(C)c2cccc(NCC3CC3)n2)CC1)c1cccc(NCC2CC2)n1
3. CC[Si](CC)(CON=C(C)c1cccc(C)n1)CON=C(C)c1cccc(C)n1
4. Cc1nc(C(N)=NOC/C=C\CON=C(N)c2nc(C)c(Cl)c(C)n2)nc(C)c1Cl

RESULT:
1. 1.62^[b]
2. 1.93^[b]
3. 6.65^[b]
4. 2.77^[b]

----------
Field: logP. Provide a value for each of the compounds that follow.
Test: logP determination by HPLC on a reversed-phase column (C 18), EEC Directive 79/831 Annex V.A8
Format: physicochemical
Conditions: method marker [a] (footnote not shown); isomer A / isomer B / isomer mixture as noted in the cell

Sample records with logP:
INSERT INTO results (compound, value) VALUES
  ('CCC(=NOCC(C)CON=C(CC)c1ncccc1C)c1ncccc1C (single isomer, unassigned) [compound 100]', '3.58^[a] (isomer A)'),
  ('CCCC(=NOCCCCON=C(CCC)c1cccc(C)n1)c1cccc(C)n1', '6.26^[a]'),
  ('Cc1ccc(C(=NOCCCON=C(c2ccc(C)c(C)n2)C(C)C)C(C)C)nc1C (mixture of isomers) [compound 237]', '4.00^[a]'),
  ('CC(=NOCCCON=C(C)c1nc(C)cs1)c1nc(C)cs1', '4.22^[a]'),
  ('CCC(=NOCCON=C(CC)c1cccc(C)n1)c1cccc(C)n1 (mixture of isomers)', '3.77^[a]');

Report logP for each item below.
1. CC(=NOCCCON=C(C)c1ccc(C)c(C)n1)c1ccc(C)c(C)n1
2. Cc1cccc(C(CC(C)C)=NOCCCON=C(CC(C)C)c2cccc(C)n2)n1 (single isomer, unassigned) [compound 114]

RESULT:
2.23^[a]
5.92^[a] (isomer A)

QUERY: Item CCCC(=NOCCCON=C(CCC)c1ncccc1C)c1ncccc1C (single isomer, unassigned) [compound 98] : provide logP
RESULT: 4.83^[a] (isomer B)
